All figures here come from ChEMBL document CHEMBL1139029.

run description: Oral bioavailability in CD rat at 5 mg/kg, po
Format: ADME, organism-based
reported conditions: in vivo
observable: bioavailability (%)
Your answer is read as %, so omit the unit and give the number.

Incoming: Determine its reported bioavailability: `CN1CCN([C@H]2C[C@@H](Oc3ccc(Cl)cc3)c3c(c4ccccc4n3CC3CCNCC3)C2=O)CC1`
Outgoing: 0

Incoming: Please report bioavailability for the following compound: CN1CCC(Cn2c3c(c4ccccc42)C(=O)C(N2CCN(C)CC2)C[C@H]3Oc2ccc(Cl)cc2)CC1 (some centres not stated)
Outgoing: 27

---

target of assay: Neuropeptide Y receptor type 1 (Homo sapiens)
Sequence (P25929 whole entry): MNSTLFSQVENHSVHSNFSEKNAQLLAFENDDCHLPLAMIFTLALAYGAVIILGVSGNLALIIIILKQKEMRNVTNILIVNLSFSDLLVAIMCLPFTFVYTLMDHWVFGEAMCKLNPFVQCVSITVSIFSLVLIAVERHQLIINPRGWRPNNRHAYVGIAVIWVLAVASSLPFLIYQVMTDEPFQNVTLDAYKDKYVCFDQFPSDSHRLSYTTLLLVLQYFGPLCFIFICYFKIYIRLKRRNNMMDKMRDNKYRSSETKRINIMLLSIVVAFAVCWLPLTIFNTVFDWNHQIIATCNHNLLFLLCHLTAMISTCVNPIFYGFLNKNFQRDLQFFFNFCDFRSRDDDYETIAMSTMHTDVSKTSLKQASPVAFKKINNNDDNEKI
run description: Displacement of [125I]PYY from human recombinant NPY1 receptor expressed in CHO cells
observable: pIC50
By convention, pIC50 is the negative base-10 log of a molar concentration.

Incoming: Supply reported pIC50 belonging to this compound: CNC1CCC(Cn2c3c(c4ccccc42)C(=O)C(N2CCN(C)CC2)C[C@H]3Oc2ccc(Cl)cc2)CC1 (some centres not stated)
Outgoing: 7.03

Incoming: Give me measured pIC50, please, for this compound: CN1CCN(C2C[C@@H](Oc3ccc(Cl)cc3)c3c(c4ccccc4n3C[C@H]3CCNC[C@@H]3F)C2=O)CC1 (some centres not stated)
Outgoing: 6.62

Incoming: Fill in pIC50 for record O=C1c2c(n(CCCN3CCCCC3)c3ccccc23)[C@H](Oc2ccc(Cl)cc2)CC1N1CCNCC1 (some centres not stated)
Outgoing: 6.48

Incoming: Tell me its pIC50 given `CN1CCN([C@H]2C[C@@H](Oc3ccc(Cl)cc3)c3c(c4ccccc4n3CC3CCNCC3)C2=O)CC1` as the entry.
Outgoing: 7.31

Incoming: Give a short answer stating reported pIC50 for O=C1c2c(n(CC3CCNCC3)c3ccccc23)[C@H](Oc2ccc(Cl)cc2)CC1N1CCC(F)(F)CC1 (some centres not stated) .
Outgoing: 5.73

Incoming: For the compound CN1CCN(C2C[C@@H](Oc3ccc(Cl)cc3)c3c(c4ccccc4n3CCCN3CCCCC3)C2=O)CC1 (some centres not stated) , give its measured pIC50 value.
Outgoing: 5.88

Incoming: Using known records, supply pIC50 for `CN1CCN([C@@H]2C[C@@H](Oc3ccc(Cl)cc3)c3c(c4ccccc4n3CC3CCNCC3)C2=O)CC1`
Outgoing: 6.11

Incoming: Report measured pIC50; entry is O=C1c2c(n(CCCN3CCCCC3)c3ccccc23)[C@H](Oc2ccc(Cl)cc2)CC1N1CCOCC1 (some centres not stated)
Outgoing: 4.80

Incoming: // Input: CC1CCN(C2C[C@@H](Oc3ccc(Cl)cc3)c3c(c4ccccc4n3CCCN3CCCCC3)C2=O)CC1 (some centres not stated) . Output its pIC50 only.
Outgoing: 6.19

Incoming: Note pIC50 for the compound shown: CN1CCN(C2C[C@@H](Oc3ccc(Cl)cc3)c3c(c4ccccc4n3C[C@@H]3CCN(C)C[C@@H]3F)C2=O)CC1 (some centres not stated)
Outgoing: 6.77

Incoming: Tell me pIC50 reported for `O=C1CC[C@@H](Oc2ccc(Cl)cc2)c2c1c1ccccc1n2CCCN1CCCCC1`
Outgoing: 5.14

Incoming: Find the measured pIC50 of O=C1c2c(n(CC3CCNCC3)c3ccccc23)[C@H](Oc2ccc(Cl)cc2)CC1N1CCN(CCO)CC1 (some centres not stated) and report it.
Outgoing: 7.43
